Settings: in DMF, 288.15 K
readout: solubility (mole fraction)

smiles_entry	readout	measurement
NC(=O)c1cccnc1Cl	solubility (mole fraction)	0.115

###

Details: in methanol, 308.15 K

smiles_entry	solubility (mole fraction)
NC(=O)c1cccnc1Cl	0.0204

###

Conditions: in water, 323.15 K

smiles_entry	solubility (mole fraction)
NC(=O)c1cccnc1Cl	0.00546

###

Settings: in ethylene glycol, 308.15 K
readout: solubility (mole fraction)

smiles_entry	measurement
NC(=O)c1cccnc1Cl	0.024

###

Details: in water, 283.15 K

smiles_entry	solubility (mole fraction)
NC(=O)c1cccnc1Cl	0.00102

###

Conditions: in methanol, 283.15 K

smiles_entry	solubility (mole fraction)
NC(=O)c1cccnc1Cl	0.00893
